Provide the reported IC50 of each item.

(Q) Name the recorded IC50 of CC(C)(C(=O)N1CCCC1C(N)c1ccc(C(=O)Nc2ccncc2)cc1)c1cccs1 (stereo unspecified) , assay system ROCK2 (human) (UniProt O75116).
(A) 500 to 5000 nM

(Q) Name the recorded IC50 of NC(CNC(=O)c1cc2ccccc2[nH]1)c1ccc(C(=O)Nc2ccncc2)cc1 (stereo unspecified) , assay system ROCK2 (human) (UniProt O75116).
(A) 500 to 5000 nM

(Q) Name the recorded IC50 of CCSCC(=O)NCC(N)c1ccc(C(=O)Nc2ccncc2)cc1 (stereo unspecified) , assay system ROCK2 (human) (UniProt O75116).
(A) 50 to 500 nM

(Q) Name the recorded IC50 of NC(CNC(=O)c1cccc(F)c1)c1ccc(C(=O)Nc2ccncc2)cc1 (stereo unspecified) , assay system ROCK2 (human) (UniProt O75116).
(A) 500 to 5000 nM

(Q) Name the recorded IC50 of Cc1cccc(CC(=O)NCC(N)c2ccc(C(=O)Nc3ccncc3)cc2)c1 (stereo unspecified) , assay system ROCK2 (human) (UniProt O75116).
(A) 50 to 500 nM

(Q) Name the recorded IC50 of CC(C)(C(=O)N1CCCC1C(N)c1ccc(C(=O)Nc2ccncc2)cc1)c1ccc(F)c(Cl)c1 (stereo unspecified) , assay system ROCK2 (human) (UniProt O75116).
(A) 500 to 5000 nM

(Q) Name the recorded IC50 of CCN(Cc1ccc([N+](=O)[O-])cc1)C(=O)CC(N)c1ccc(C(=O)Nc2ccncc2)cc1 (stereo unspecified) , assay system ROCK2 (human) (UniProt O75116).
(A) 50 to 500 nM

(Q) Name the recorded IC50 of CCNC(=O)CC(N)c1ccc(C(=O)Nc2ccncc2)cc1 (stereo unspecified) , assay system ROCK2 (human) (UniProt O75116).
(A) 50 to 500 nM

(Q) Name the recorded IC50 of NC(CNC(=O)C1(c2ccc(Cl)c(Cl)c2)CC1)c1ccc(C(=O)Nc2ccncc2)cc1 (stereo unspecified) , assay system ROCK2 (human) (UniProt O75116).
(A) 50 to 500 nM

(Q) Name the recorded IC50 of NC(c1ccc(C(=O)Nc2ccncc2)cc1)C1CCCN1C(=O)C1(c2ccc(Cl)cc2)CCCC1 (stereo unspecified) , assay system ROCK2 (human) (UniProt O75116).
(A) 500 to 5000 nM

(Q) Name the recorded IC50 of CCOC(=O)CCNC(=O)NCC(N)c1ccc(C(=O)Nc2ccncc2)cc1 (stereo unspecified) , assay system ROCK2 (human) (UniProt O75116).
(A) 500 to 5000 nM

(Q) Name the recorded IC50 of NC(c1ccc(C(=O)Nc2ccncc2)cc1)C1CCCN1C(=O)Cc1c(F)cccc1Cl (stereo unspecified) , assay system ROCK2 (human) (UniProt O75116).
(A) 500 to 5000 nM

(Q) Name the recorded IC50 of CC(C)(C)ON=Cc1ccc(C(=O)NCC(N)c2ccc(C(=O)Nc3ccncc3)cc2)cc1 (stereo unspecified) , assay system ROCK2 (human) (UniProt O75116).
(A) 500 to 5000 nM

(Q) Name the recorded IC50 of COc1ccc(C(NC(=O)CC(N)c2ccc(C(=O)Nc3ccncc3)cc2)c2ccc(OC)cc2)cc1 (stereo unspecified) , assay system ROCK2 (human) (UniProt O75116).
(A) 50 to 500 nM

(Q) Name the recorded IC50 of CN(CC(N)c1ccc(C(=O)Nc2ccncc2)cc1)C(=O)Cc1cccc(Cl)c1F (stereo unspecified) , assay system ROCK2 (human) (UniProt O75116).
(A) 500 to 5000 nM

(Q) Name the recorded IC50 of NC(CNC(=O)c1ccc2cc[nH]c2c1)c1ccc(C(=O)Nc2ccncc2)cc1 (stereo unspecified) , assay system ROCK2 (human) (UniProt O75116).
(A) 500 to 5000 nM

(Q) Name the recorded IC50 of N#CCC(=O)NCC(N)c1ccc(C(=O)Nc2ccncc2)cc1 (stereo unspecified) , assay system ROCK2 (human) (UniProt O75116).
(A) 50 to 500 nM

(Q) Name the recorded IC50 of NC(c1ccc(C(=O)Nc2ccncc2)cc1)C1CCCN1C(=O)C1(c2ccc(Cl)c(Cl)c2)CC1 (stereo unspecified) , assay system ROCK2 (human) (UniProt O75116).
(A) 500 to 5000 nM

(Q) Name the recorded IC50 of NC(CNC(=O)c1cnnc2ccccc12)c1ccc(C(=O)Nc2ccncc2)cc1 (stereo unspecified) , assay system ROCK2 (human) (UniProt O75116).
(A) 500 to 5000 nM

(Q) Name the recorded IC50 of N[C@H](CC(=O)N[C@@H]1CCCc2ccccc21)c1ccc(C(=O)Nc2ccncc2)cc1 , assay system ROCK2 (human) (UniProt O75116).
(A) < 50 nM

(Q) Name the recorded IC50 of COc1ccc(CNC(=O)NCC(N)c2ccc(C(=O)Nc3ccncc3)cc2)cc1 (stereo unspecified) , assay system ROCK2 (human) (UniProt O75116).
(A) 50 to 500 nM

(Q) Name the recorded IC50 of COc1ccc(CC(=O)N2CCCC2C(N)c2ccc(C(=O)Nc3ccncc3)cc2)cc1 (stereo unspecified) , assay system ROCK2 (human) (UniProt O75116).
(A) 50 to 500 nM

(Q) Name the recorded IC50 of COc1cc(CCNC(=O)CC(N)c2ccc(C(=O)Nc3ccncc3)cc2)cc(OC)c1 (stereo unspecified) , assay system ROCK2 (human) (UniProt O75116).
(A) 50 to 500 nM

(Q) Name the recorded IC50 of NC(c1ccc(C(=O)Nc2ccncc2)cc1)C1CCCN1C(=O)C1CCSc2ccc(F)cc21 (stereo unspecified) , assay system ROCK2 (human) (UniProt O75116).
(A) 500 to 5000 nM

(Q) Name the recorded IC50 of COCCC(=O)NCC(N)c1ccc(C(=O)Nc2ccncc2)cc1 (stereo unspecified) , assay system ROCK2 (human) (UniProt O75116).
(A) 500 to 5000 nM

(Q) Name the recorded IC50 of NC(c1ccc(C(=O)Nc2ccncc2)cc1)C1CCCN1C(=O)C(c1ccccc1)C1CCCC1 (stereo unspecified) , assay system ROCK2 (human) (UniProt O75116).
(A) 500 to 5000 nM
